assay.target: UniProt:P41595
Sequence (P41595 whole entry): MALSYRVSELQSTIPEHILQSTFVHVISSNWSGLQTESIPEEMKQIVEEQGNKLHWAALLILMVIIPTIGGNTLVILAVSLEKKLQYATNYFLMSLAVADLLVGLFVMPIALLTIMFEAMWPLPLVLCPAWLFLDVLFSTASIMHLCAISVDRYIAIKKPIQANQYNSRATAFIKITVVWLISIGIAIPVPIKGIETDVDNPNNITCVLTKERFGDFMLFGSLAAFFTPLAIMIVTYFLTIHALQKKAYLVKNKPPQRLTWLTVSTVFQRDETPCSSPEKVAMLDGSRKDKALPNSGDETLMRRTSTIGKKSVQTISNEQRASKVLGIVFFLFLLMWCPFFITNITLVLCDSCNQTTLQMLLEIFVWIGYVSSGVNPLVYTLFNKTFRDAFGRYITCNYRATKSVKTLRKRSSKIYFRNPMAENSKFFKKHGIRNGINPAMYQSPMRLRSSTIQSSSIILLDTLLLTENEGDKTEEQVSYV
Assay type: functional, cell-based
So I've got a bunch of compounds here, and I need their AC50 values.

For the compound shown here, C[C@]12CC[C@H]3[C@@H](CCC4=CC(=O)CC[C@@]43C)[C@@H]1CC[C@@H]2O , give the reported AC50.
> 10 µM

Now give it for Cc1cn([C@H]2C[C@H](N=[N+]=[N-])[C@@H](CO)O2)c(=O)[nH]c1=O too.
> 10 µM

Now give it for CN(C)CCC=C1c2ccccc2C=Cc2ccccc21 too.
> 10 µM

Now give it for O=C(O)C1=C(CSc2nnnn2CS(=O)(=O)O)CS[C@@H]2[C@H](NC(=O)[C@H](O)c3ccccc3)C(=O)N12 too.
> 30 µM

Now give it for Cc1ccc(S(=O)(=O)NC(=O)NN2CC3CCCC3C2)cc1 (stereo unspecified) [GLICLAZIDE] too.
> 10 µM

Now give it for COc1ccc2c3c1O[C@H]1C(=O)CC[C@@]4(O)[C@@H](C2)N(C)CC[C@]314 too.
> 30 µM
